Target: T1, 4H2745-bA
T1 chain: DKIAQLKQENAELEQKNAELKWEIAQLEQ
Experiment: two-hybrid library CCNG1;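 also: natural log of median RNA to DNA barcode read ratio; higher means stronger binding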
ASSAY METRIC: interaction score

- BINDER: "DKIAQLKQEIAELEQKNAELKWENAQLEQ [4H2619-bA]"
  VALUE: -0.393
- BINDER: "DKIAQLKQENAELEQKNAELKWEIAQLEQ [4H2745-bA]"
  VALUE: -0.711
- BINDER: "DENAQLEQEIAELEQKIAELKWKNAQLKQ [4H1072-bA]"
  VALUE: -0.205
- BINDER: "DKIAQLKQEIAELEQEIAELEWKNAQLKQ [4H2568-bA]"
  VALUE: -0.347
- BINDER: "DENAQLEQEIAELEQENAELEWKIAQLKQ [4H1046-bA]"
  VALUE: 0.103
